compounds and their reported pIC50
# target.under.test: BaF3-ETV6-NTRK2 (Homo sapiens, UniProt Q16620)
# Construct: fused on or other part: P41212 (Transcription factor ETV6)
# Sequence (Q16620 538-822 limits assumed): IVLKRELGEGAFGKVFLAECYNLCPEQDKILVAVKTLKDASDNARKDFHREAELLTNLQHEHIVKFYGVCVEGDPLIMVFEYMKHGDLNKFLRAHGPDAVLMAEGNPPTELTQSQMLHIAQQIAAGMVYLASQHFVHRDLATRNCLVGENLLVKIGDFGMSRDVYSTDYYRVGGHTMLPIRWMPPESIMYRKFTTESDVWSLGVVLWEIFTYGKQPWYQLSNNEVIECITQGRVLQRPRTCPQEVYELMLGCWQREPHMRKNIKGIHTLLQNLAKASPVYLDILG
# experimental.protocol: Cell proliferation inhibition (CCK-8), BaF3-ETV6-NTRK2 stable strain
# setup.conditions: BaF3-ETV6-NTRK2, 72 hours
On this scale, pIC50 is minus log10 of a concentration expressed in M (mol/L).

Example entries and their recorded answers appear below.
compound	target.under.test	pIC50
C[C@@H](Nc1cnc2[nH]nc(/C=C/c3ccccn3)c2c1)c1cc(F)cc(F)c1 [DYX-318]	BaF3-ETV6-NTRK2 (Homo sapiens, UniProt Q16620)	7.47
Fc1ccc(Cc2ccc3[nH]nc(/C=C/c4ccccn4)c3c2)cc1F [DYX-059]	BaF3-ETV6-NTRK2 (Homo sapiens, UniProt Q16620)	5.05
COCCn1cc(/C=C/c2n[nH]c3ccc(NS(=O)(=O)c4cc(F)cc(F)c4)cc23)cn1 [CHW-13]	BaF3-ETV6-NTRK2 (Homo sapiens, UniProt Q16620)	7.28
COc1ccc(F)cc1CNc1ccc2[nH]nc(/C=C/c3ccccn3)c2c1 [DYX-418]	BaF3-ETV6-NTRK2 (Homo sapiens, UniProt Q16620)	7.39
CNC(=O)/C=C/c1n[nH]c2ccc(NCc3cc(F)cc(F)c3)cc12 [DYX-235]	BaF3-ETV6-NTRK2 (Homo sapiens, UniProt Q16620)	7.49

What value of pIC50 on BaF3-ETV6-NTRK2 (Homo sapiens, UniProt Q16620) does C[C@@H](Nc1ccc2[nH]nc(/C=C/c3cnccn3)c2c1)c1cc(F)cc(F)c1 [DYX-411] have? 7.42

Entry Clc1cccc(Cc2ccc3[nH]nc(C#Cc4ccccn4)c3c2)c1 [DYX-134Q] please 5.34

Next compound: CCn1cc(/C=C/c2n[nH]c3ccc(N[C@H](C)c4cc(F)cc(F)c4)cc23)cn1 [DYX-349] 7.97

Please give the result for Fc1cncc(CNc2ccc3[nH]nc(/C=C/c4ccccn4)c3c2)c1 [DYX-419] too. 7.92

Field entry: O=S(=O)(Nc1ccc2[nH]nc(/C=C/c3ccccn3)c2c1)c1cccc(F)c1 [CHW-5] 7.15

Now consider Fc1ccc(F)c([C@H]2CCCN2c2ccc3[nH]nc(/C=C/c4ccccn4)c3c2)c1 [DYX-170] and answer again. 6.62

====

# target.under.test: BaF3-ETV6-NTRK2 (Homo sapiens, UniProt Q16620)
# Construct: fused on or other part: P41212 (Transcription factor ETV6)
# experimental.protocol: Cell proliferation inhibition (CCK-8), BaF3-ETV6-NTRK2 stable strain
# setup.conditions: BaF3-ETV6-NTRK2, 72 hours
One threshold, 800 nM, splits the recorded IC50 values: lower ones are label 1, equal or higher ones are label 0.

# count of solved cases: 4
compound	assigned.label
Fc1ccc(Cc2ccc3[nH]nc(C#Cc4ccccn4)c3c2)cc1	label 0
Fc1ccc(Cl)c(CNc2ccc3[nH]nc(/C=C/c4ccccn4)c3c2)c1	label 1
COc1cc(F)cc(CNc2ccc3[nH]nc(/C=C/c4ccccn4)c3c2)c1	label 1
Fc1cc(Cl)cc(CNc2ccc3[nH]nc(/C=C/c4ccccn4)c3c2)c1	label 1

Threshold test, IC50 < 800 nM: Fc1cc(Cc2ccc3[nH]nc(/C=C/c4ccccn4)c3c2)cc(F)c1F label 0

Further, for Clc1cccc(Cc2ccc3[nH]nc(/C=C/c4ccccn4)c3c2)c1 [DYX-134X] ? label 0

Let us now turn to Fc1cccc(F)c1Cc1ccc2[nH]nc(/C=C/c3ccccn3)c2c1 label 0

====

# target.under.test: BaF3-ETV6-NTRK2 (Homo sapiens)
# Construct: fused on or other part: P41212 (Transcription factor ETV6)
# experimental.protocol: Cell proliferation inhibition (CCK-8), BaF3-ETV6-NTRK2 stable strain
# setup.conditions: BaF3-ETV6-NTRK2, 72 hours
measured.quantity: IC50 (µM)
Express it in µM; write the number only.

Guide cases for IC50, answers given:
compound	target.under.test	measured.quantity	recorded.result
Fc1cccc(CNc2ccc3[nH]nc(/C=C/c4ccccn4)c3c2)c1 [DYX-305]	BaF3-ETV6-NTRK2 (Homo sapiens)	IC50	0.0513
Fc1cc(F)cc(Cc2ccc3[nH]nc(/C=C/c4ccc5ccccc5n4)c3c2)c1 [DYX-06]	BaF3-ETV6-NTRK2 (Homo sapiens)	IC50	0.723
Fc1cc(F)cc(CNc2ccc3[nH]nc(/C=C/c4ccccn4)c3c2)c1 [DYX-185]	BaF3-ETV6-NTRK2 (Homo sapiens)	IC50	0.0439

What value of IC50 has been reported for the following compound? O=C(/C=C/c1n[nH]c2ccc(NCc3cc(F)cc(F)c3)cc12)N1CCOCC1 [DYX-222] 0.0547

Continue with C(=C\c1n[nH]c2ccc(NCc3ccccc3)cc12)/c1ccccn1 [DYX-314] 0.165

Next compound: Fc1cc(F)cc(Cc2ccc3[nH]nc(C#Cc4ccccn4)c3c2)c1 [CCB-484] 1.97

====

Below, each entry is listed alongside its reported pIC50.
# target.under.test: BaF3-ETV6-NTRK3 (Homo sapiens, UniProt Q16288)
# Construct: fused on or other part: P41212 (Transcription factor ETV6)
# Sequence (Q16288 whole entry, the tested form may be a part): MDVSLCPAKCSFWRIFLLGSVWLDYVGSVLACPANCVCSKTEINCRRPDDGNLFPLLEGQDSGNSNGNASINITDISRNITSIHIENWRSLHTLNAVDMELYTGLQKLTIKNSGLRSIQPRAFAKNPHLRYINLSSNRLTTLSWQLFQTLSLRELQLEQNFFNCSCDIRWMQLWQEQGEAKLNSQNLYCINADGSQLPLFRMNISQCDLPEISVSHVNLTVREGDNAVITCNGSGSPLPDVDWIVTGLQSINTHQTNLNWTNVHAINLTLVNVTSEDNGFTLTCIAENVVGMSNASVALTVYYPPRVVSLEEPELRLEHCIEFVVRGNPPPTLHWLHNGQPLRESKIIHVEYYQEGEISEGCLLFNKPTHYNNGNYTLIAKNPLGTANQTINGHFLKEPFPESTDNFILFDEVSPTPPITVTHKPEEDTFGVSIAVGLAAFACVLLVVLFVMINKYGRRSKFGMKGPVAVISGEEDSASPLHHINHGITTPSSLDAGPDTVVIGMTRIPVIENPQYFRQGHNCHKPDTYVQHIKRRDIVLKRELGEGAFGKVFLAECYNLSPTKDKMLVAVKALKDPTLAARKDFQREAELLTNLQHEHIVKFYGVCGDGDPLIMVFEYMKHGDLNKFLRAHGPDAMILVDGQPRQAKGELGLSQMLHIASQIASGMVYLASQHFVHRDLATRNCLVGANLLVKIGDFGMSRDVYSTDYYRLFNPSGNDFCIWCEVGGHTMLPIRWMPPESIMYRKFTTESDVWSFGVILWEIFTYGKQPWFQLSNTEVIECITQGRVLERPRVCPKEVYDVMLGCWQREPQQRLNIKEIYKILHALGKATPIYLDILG
# experimental.protocol: Cell proliferation inhibition (CCK-8), BaF3-ETV6-NTRK3 stable strain
# setup.conditions: BaF3-ETV6-NTRK3, 72 hours
Convention used: pIC50 is expressed as -log10 of the molar concentration.

Here are 3 compounds together with their reported answers.
smiles.repr	measured.quantity	recorded.result
O=S(=O)(Nc1ccc2[nH]nc(/C=C/c3cnn(CC(F)(F)F)c3)c2c1)c1cc(F)cc(F)c1	pIC50	6.91
CN(c1cc(F)cc(F)c1)c1ccc2[nH]nc(/C=C/c3ccccn3)c2c1	pIC50	5.90
O=S(=O)(c1cc(F)cc(F)c1)c1ccc2[nH]nc(/C=C/c3ccccc3F)c2c1	pIC50	6.81

pIC50 for C[C@@H](Nc1ccc2[nH]nc(/C=C/c3ccccc3)c2c1)c1cc(F)cc(F)c1 ? 7.45

====

# target.under.test: TRKC (Homo sapiens)
# Sequence (Q16288 32-839): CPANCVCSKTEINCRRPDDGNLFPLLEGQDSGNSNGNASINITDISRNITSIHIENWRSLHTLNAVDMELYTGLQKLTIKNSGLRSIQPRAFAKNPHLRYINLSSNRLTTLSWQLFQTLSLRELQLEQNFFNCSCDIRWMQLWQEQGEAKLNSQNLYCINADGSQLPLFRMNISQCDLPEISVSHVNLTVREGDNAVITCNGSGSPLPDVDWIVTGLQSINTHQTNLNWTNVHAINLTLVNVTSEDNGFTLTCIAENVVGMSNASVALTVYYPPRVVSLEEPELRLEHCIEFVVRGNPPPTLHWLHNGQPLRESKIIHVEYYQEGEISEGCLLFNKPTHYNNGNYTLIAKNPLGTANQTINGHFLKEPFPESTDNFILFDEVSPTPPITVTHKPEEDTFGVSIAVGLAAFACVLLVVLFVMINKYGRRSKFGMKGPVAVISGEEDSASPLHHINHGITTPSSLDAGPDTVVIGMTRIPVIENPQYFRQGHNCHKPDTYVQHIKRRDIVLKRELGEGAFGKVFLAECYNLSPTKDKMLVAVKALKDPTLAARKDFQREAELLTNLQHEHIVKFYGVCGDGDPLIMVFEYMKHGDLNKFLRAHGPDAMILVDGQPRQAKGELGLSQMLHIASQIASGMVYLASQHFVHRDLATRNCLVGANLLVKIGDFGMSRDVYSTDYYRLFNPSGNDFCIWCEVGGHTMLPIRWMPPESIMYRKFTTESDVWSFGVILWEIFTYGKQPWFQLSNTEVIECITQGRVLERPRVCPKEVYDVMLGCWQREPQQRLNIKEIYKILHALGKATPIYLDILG
# Lookup of reported IC50 keyed by entry

See these solved cases before continuing.
smiles.repr	recorded.result
Fc1ccc(Cc2ccc3[nH]nc(C#Cc4ccccn4)c3c2)cc1	> 1000 nM
Fc1cc(Cc2ccc3[nH]nc(C#Cc4ccccn4)c3c2)cc(F)c1F	> 1000 nM

Alright, here's another molecule for you.
Give its IC50 value. Item: Fc1ccc(Cc2ccc3[nH]nc(C#Cc4ccccn4)c3c2)c(F)c1 > 1000 nM

====

Parameter: pIC50. Scope: all listed entries.
# target.under.test: BaF3-CD74-NTRK1 (Homo sapiens)
# Construct: fused on or other part: P04233 (HLA class II histocompatibility antigen gamma chain)
# experimental.protocol: Cell proliferation inhibition (CCK-8), BaF3-CD74-NTRK1 stable strain
# Type: cell-based, mouse
# setup.conditions: BaF3-CD74-NTRK1, 72 hours
In simple prose, pIC50 is minus the logarithm base ten of a concentration in moles per litre.

compound	measured.quantity	recorded.result
CNC(=O)Cn1cc(/C=C/c2n[nH]c3ccc(NS(=O)(=O)c4cc(F)cc(F)c4)cc23)cn1 [CHW-14]	pIC50	6.48

Item Fc1cc(F)cc(COc2ccc3[nH]nc(C#Cc4ccccn4)c3c2)c1 [DYX-131] has what recorded pIC50? 5.54

What would you report for CCn1cc(/C=C/c2n[nH]c3ccc(NS(=O)(=O)c4cc(F)cc(F)c4)cc23)cn1 [Example D5218] ? 7.97

Can you check O=S(=O)(Nc1ccc2[nH]nc(/C=C/c3cnn(C(F)F)c3)c2c1)c1cc(F)cc(F)c1 [CHW-11] next? 7.27

And for CN(Cc1ccc2[nH]nc(/C=C/c3ccccn3)c2c1)c1cc(F)cc(F)c1 [DYX-193] ? 6.87

And the next one, Fc1cc(F)cc(OCc2ccc3[nH]nc(/C=C/c4ccccn4)c3c2)c1 [DYX-176] ? 6.20

How about O=C(Nc1ccc2[nH]nc(/C=C/c3ccccn3)c2c1)c1cc(F)cc(F)c1 [DYX-164] ? 5.71

====

What follows is a collection of pIC50 values obtained with TRKA (Homo sapiens, UniProt P04629).
Sequence (P04629 440-796 limits assumed): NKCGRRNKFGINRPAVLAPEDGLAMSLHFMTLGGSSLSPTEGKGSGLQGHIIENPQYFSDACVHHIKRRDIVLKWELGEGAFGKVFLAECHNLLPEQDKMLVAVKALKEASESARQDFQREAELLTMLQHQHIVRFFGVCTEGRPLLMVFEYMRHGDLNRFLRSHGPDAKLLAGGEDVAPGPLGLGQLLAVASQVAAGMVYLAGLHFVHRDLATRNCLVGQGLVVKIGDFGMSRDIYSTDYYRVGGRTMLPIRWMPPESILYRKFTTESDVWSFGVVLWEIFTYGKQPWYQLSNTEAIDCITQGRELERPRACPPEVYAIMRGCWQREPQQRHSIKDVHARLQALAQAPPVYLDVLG
pIC50 here is simply -log10 of the concentration when that concentration is written in mol/L.

Known pIC50 results, listed for orientation:
compound	recorded.result
Fc1cccc(F)c1Cc1ccc2[nH]nc(C#Cc3ccccn3)c2c1	6.66
O=S(=O)(c1cc(F)cc(F)c1)c1ccc2[nH]nc(C#Cc3ccccn3)c2c1	8.09

TRKA (Homo sapiens, UniProt P04629) / pIC50 / Cc1cccc(Cc2ccc3[nH]nc(/C=C/c4ccccn4)c3c2)c1 [DYX-137X] : value? 7.47

Note, next up: Clc1cccc(Cc2ccc3[nH]nc(C#Cc4ccccn4)c3c2)c1 [DYX-134Q] 7.04
